Molecular target: GST-PSD95 PDZ domains 1-3 (human), P78352
Experiment: Matrix/G assay ELISA, E6 peptide titrated on GST-PDZ
Ends that are not written are not given here.
measure_name: EC50 (nM)
Write the number in nM without appending the unit.

// query Field request: EC50 | item: WTGRCMSCCRSSRTRRETQL (not fully specified; cysteine pairing not given here) [HPV16 E6 C-terminal PDZ ligand peptide (20 mer, biotinylated), P03126 139-158]
// result 1000
